For each of the compounds below, state its inhibition in vivo at 30 mg/kg.
# Test system: Male Donryu-strain rats
# protocol.text: Test for antiulcer activity (restraint and water immersion stress ulcer, lesion index of glandular stomach)
# Type: in vivo
# recorded.conditions: Rattus norvegicus, po: 30 mg/kg, water immersion at 23±1° C. for 7 hours, read-out: Ulcer-inhibition Rate
One number for each entry, in %.

INSERT INTO measurements (compound, result_unit, reported_measurement) VALUES
  ('CCN(CC)CCCNC1c2ccccc2OCc2ncccc21 (stereo not shown)', '%', 55),
  ('c1ccc2c(c1)OCc1ncccc1C2NCCN1CCCC1 (stereo not shown)', '%', 72),
  ('CN1CCN(C2c3ccccc3OCc3ncccc32)CC1 (stereo not shown)', '%', 67),
  ('c1ccc2c(c1)OCc1ncccc1C2NCCN1CCOCC1 (stereo not shown)', '%', 73),
  ('CCN(CC)CCNC1c2ccccc2OCc2ncccc21 (stereo not shown)', '%', 85),
  ('CC(C)N(CCNC1c2ccccc2OCc2ncccc21)C(C)C (stereo not shown)', '%', 88);

# get_value(readout= inhibition in vivo at 30 mg/kg, system= Male Donryu-strain rats) for CN(C)CCNC1c2ccccc2OCc2ncccc21 (stereo not shown)
78
